Test system: Klebsiella aerogenes
Measurement Notes: Antibacterial activity against Enterobacter aerogenes at 10 mg/ml after 24 hrs by disc diffusion method
Format: functional, organism-based
Active and inactive are the calls of the source. The rule behind the calls is not given here.
Measured Metric: Activity

For orientation, consider the following solved cases.
CCN1C(=O)CS/C1=N\NC(=O)C(C)c1ccc(-c2ccccc2)c(F)c1 (stereo not given)
inactive
CNC(=S)NNC(=O)C(C)c1ccc(-c2ccccc2)c(F)c1 (stereo not given)
inactive
CC(C(=O)N/N=C/c1ccc([N+](=O)[O-])cc1)c1ccc(-c2ccccc2)c(F)c1 (stereo not given)
inactive
CC(C(=O)N/N=C1\SCC(=O)N1Cc1ccccc1)c1ccc(-c2ccccc2)c(F)c1 (stereo not given)
inactive

Next molecule, please.
Challenge: Please indicate Activity recorded for CCNC(=S)NNC(=O)C(C)c1ccc(-c2ccccc2)c(F)c1 (stereo not given)
Response given: inactive
